study system: UniProtKB P32241
Sequence (P32241 31-457): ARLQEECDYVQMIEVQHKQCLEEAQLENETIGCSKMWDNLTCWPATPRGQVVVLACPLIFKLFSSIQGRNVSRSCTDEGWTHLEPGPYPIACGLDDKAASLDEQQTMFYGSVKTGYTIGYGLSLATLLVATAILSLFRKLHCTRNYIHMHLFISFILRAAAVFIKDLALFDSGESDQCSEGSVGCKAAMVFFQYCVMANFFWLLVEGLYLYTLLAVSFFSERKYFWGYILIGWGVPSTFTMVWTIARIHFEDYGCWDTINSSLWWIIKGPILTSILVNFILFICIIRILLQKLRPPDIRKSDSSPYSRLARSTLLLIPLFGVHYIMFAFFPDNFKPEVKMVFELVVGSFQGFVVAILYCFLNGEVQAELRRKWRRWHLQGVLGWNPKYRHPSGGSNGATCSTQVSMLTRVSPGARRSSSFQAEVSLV
protocol summary: FAM-VIP competition binding by FACS ([…] VIP binding left at […]) and aequorin calcium mobilization in CHO cells expressing VPAC1; IC50 extrapolated from the partial calcium inhibition
pIC50: −log10 of the molar value.
measured endpoint: pIC50

Request: Looking for the measured pIC50 of CCCSc1nc(N[C@@H]2C[C@H]2c2ccc(F)c(F)c2)c2nnn([C@@H]3C[C@H](OCCO)[C@@H](O)[C@H]3O)c2n1 , can you help?
Result: ~4.30
